Answer each item with its documented composite z-score.
- Test system: Inhibin beta A chain (activin A)
- ASSAY_EXPLANATION: INHBA (activin A) binders on microarrays, primary screen, biochemical, small-molecule microarray, 635 nm fluorescence scan (AID 1107);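 further: mouse activin A protein probed at 4.33 µg/mL on printed slides; score merges bound-protein fluorescence near 667 nm with spot signal-to-noise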
- APPLIED_CONDITIONS: small-molecule microarray binding, higher = more signal
Write the value as a bare number.

The reported composite z-score of the compound CCOC(=O)C1=CCC(c2cc3ccccc3[nH]2)NC1 (stereo unspecified) was 1.65

The reported composite z-score of the compound O=C1C2C=CC(C(O)c3ccc([N+](=O)[O-])cc3)N(Nc3ccc([N+](=O)[O-])cc3)C2C(=O)N1c1ccccc1 (stereo unspecified) was 0.69

The reported composite z-score of the compound CO[C@H]([C@@H](C)[C@H](OC)c1ccccc1)[C@H](C)[C@@H](OC)[C@H](C)C(C)=O was 0.782

The reported composite z-score of the compound CCCNC(=O)[C@@H]1c2ccccc2C(=O)N(Cc2ccccc2Cl)[C@H]1c1ccc(CO)cc1 was 0.341

The reported composite z-score of the compound CO[C@H]1O[C@H](CO)[C@@H](OC(=O)Nc2ccc3c(c2)OCO3)[C@H](OC(=O)Nc2ccccc2-c2ccccc2)[C@@H]1OC(=O)Nc1ccccc1-c1ccccc1 was -0.548

The reported composite z-score of the compound CC(CCC(=O)OC[C@H]1O[C@H](C#Cc2ccccc2)C=C[C@@H]1Oc1ccc(C)cc1)=NOC[C@@H](O)COCc1ccco1 was -2.69

The reported composite z-score of the compound C=C(/C(=C/C[C@H](OC(C)=O)c1ccc(OCCO)cc1)c1cnc2ccccc2c1)C(C)C was 1.64

The reported composite z-score of the compound COCCCNC(=O)[C@@]1(Sc2ccc(C)cc2)CC(=O)N(Cc2ccccc2)[C@@H]1c1ccc(CO)cc1I was 1.12

The reported composite z-score of the compound CC(C)OC(=O)C=C1C[C@@H](c2ccc(C#N)cc2)O[C@@H](c2ccc(C#N)cc2)O1 was -0.106

The reported composite z-score of the compound CC(C)N1CC=CC23O[C@@H]4C=CCCOC(=O)C4[C@H]2C(=O)N(CCCCCCO)[C@@H]3C1=O (stereo partly specified) was 0.12

The reported composite z-score of the compound COCCCNC(=O)[C@@]1(CCS(=O)(=O)c2ccccc2)N=C(c2ccc(OCCCO)cc2)O[C@H]1c1ccccc1 was 0.0123

The reported composite z-score of the compound CCN1C(=O)[C@H]2[C@H]3[C@H](O)C=CC(=O)[C@@H]3CC[C@H]2C1=O was -0.114

The reported composite z-score of the compound CCOC(=O)CCN1C(=O)[C@H]2[C@H]3[C@H](O)[C@H](O)CC(=NOC[C@@H](O)COCc4ccco4)[C@@H]3CC[C@H]2C1=O was 0.383

The reported composite z-score of the compound COC(=O)C1=CCC(c2cccc(Cl)c2)O1 (stereo unspecified) was 1.09

The reported composite z-score of the compound O=C1[C@H]2[C@H]3[C@H](O)[C@H](O)CC(=NO[C@@H]4O[C@H](CO)[C@@H](O)[C@H](O)[C@H]4O)[C@H]3CC[C@H]2C(=O)N1Cc1ccc2c(c1)OCO2 was -0.401

The reported composite z-score of the compound CN1C(=O)C2C=CC(C(O)C(c3ccccc3)c3ccccc3)N(NC(=O)OC(C)(C)C)C2C1=O (stereo unspecified) was -0.109

====

- Test system: Lefty1
- ASSAY_EXPLANATION: Lefty1 binders on small-molecule microarrays, primary screen, biochemical, small-molecule microarray, 635/667 nm fluorescence (AID 1139)
- APPLIED_CONDITIONS: small-molecule microarray binding, fluorescence 635/667; higher = more signal
Assign YES whenever composite z-score does not fall below 0.9; assign NO whenever it does.

Q. Say whether CCOC(=O)CCN1C(=O)[C@H]2[C@H]3[C@H](O)[C@H](O)CC(=O)[C@H]3CC[C@H]2C1=O shows composite z-score of 0.9 or more.
A. NO

Q. Say whether CCN1C(=O)[C@H]2[C@H]3[C@H](O)[C@H](O)CC(=NOCC=C(C)CCC=C(C)C)[C@H]3CC[C@H]2C1=O shows composite z-score of 0.9 or more.
A. YES

Q. Say whether COc1ccccc1CN1C(=O)c2ccccc2[C@@]2(Cc3ccccc3N(C(C)C)C2=O)[C@@H]1c1ccc(CO)cc1 shows composite z-score of 0.9 or more.
A. NO

Q. Say whether COCCCNC(=O)[C@@]1(CCS(=O)(=O)c2ccccc2)N=C(c2ccc(OCCCO)cc2)O[C@H]1c1ccccc1 shows composite z-score of 0.9 or more.
A. NO

Q. Say whether CCOC(=O)C[C@H]1[C@H](OC(=O)c2ccc(C(=O)c3ccccc3)cc2)[C@@H](NC(=O)c2ccc(-c3ccccc3)cc2)c2cc(OCCCO)ccc2N1C(=O)c1ccc2ccccc2n1 shows composite z-score of 0.9 or more.
A. YES

Q. Say whether O=C1[C@H]2[C@H]3[C@H](O)[C@H](O)CC(=NOC[C@@H](O)COCc4ccco4)[C@H]3CC[C@H]2C(=O)N1C1CCCCC1 shows composite z-score of 0.9 or more.
A. YES

====

- ASSAY_EXPLANATION: small-molecule microarray binders of probe aCHRDL2, primary screen, biochemical, biotinylated probe, 635/667 nm fluorescence (AID 1100)
- APPLIED_CONDITIONS: higher = more signal
MEASUREMENT_NAME: composite z-score

The reported composite z-score of the compound CC(=O)O[C@H]1C2=C(C(=O)[C@@H]3O[C@@H]31)[C@H]1C(C)O[C@@H]2[C@@]23C(=O)[C@@H]4O[C@@H]4[C@@H](O)C2=CO[C@H](C)[C@@H]13 (some centres not stated) was -0.62

The reported composite z-score of the compound [N-]=[N+]=NCc1ccccc1[C@@H]1OC(c2ccc(OCCCO)cc2)=N[C@]1(Cc1ccccc1)C(=O)N1CCOCC1 was 0.798

The reported composite z-score of the compound CC1CC/C=C\[C@H]2OC34C=CCN(C(C)C)C(=O)[C@H]3N(CCCO)C(=O)[C@@H]4C2C(=O)O1 (some centres not stated) was 0.0886

The reported composite z-score of the compound C#CCCCON=C1C[C@@H](O)[C@@H](O)[C@@H]2[C@@H]3C(=O)N(Cc4ccccc4)C(=O)[C@@H]3CC[C@H]12 was -0.417

The reported composite z-score of the compound CC(=O)OC[C@H]1O[C@H](C#CCCCc2ccccc2)C=C[C@@H]1OC(C)=O was -0.33

The reported composite z-score of the compound CCN1C(=O)[C@H]2[C@H]3[C@H](O)[C@H](O)CC(=NOC[C@@H](C)[C@H](OCc4ccccc4)C(C)C)[C@@H]3CC[C@H]2C1=O was -0.171

The reported composite z-score of the compound COCCOC(=O)N1C(=O)[C@@]2(c3ccccc31)[C@H](C(N)=O)[C@H]1C(=O)O[C@H](c3ccccc3)[C@H](c3ccccc3)N1[C@@H]2c1ccccc1OCCO was 0.799

====

- TARGET_DESC: Follistatin-related protein 3 (Homo sapiens) (UniProt O95633)
- Sequence (O95633 whole entry, looked up): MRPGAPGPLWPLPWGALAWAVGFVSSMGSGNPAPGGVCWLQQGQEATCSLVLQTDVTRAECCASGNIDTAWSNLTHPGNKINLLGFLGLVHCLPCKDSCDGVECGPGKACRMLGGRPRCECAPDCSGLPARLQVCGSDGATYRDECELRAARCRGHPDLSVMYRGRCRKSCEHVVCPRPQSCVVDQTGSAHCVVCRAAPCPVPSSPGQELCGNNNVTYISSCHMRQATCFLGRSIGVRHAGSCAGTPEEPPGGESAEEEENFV
- ASSAY_EXPLANATION: FSTL3 binders on small-molecule microarrays, primary screen, biochemical, small-molecule microarray, 635 nm fluorescence (AID 1105);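 further: score merges emission near 667 nm and signal to noise per printed spot across three slides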
- APPLIED_CONDITIONS: FSTL3 binding, higher = more signal
MEASUREMENT_NAME: composite z-score
Write the value as a bare number.

The reported composite z-score of the compound CN(C)C(=O)[C@@]1(Cc2ccccc2)N=C(c2ccc(OCCCO)cc2)O[C@H]1c1ccccc1CN=[N+]=[N-] was 0.732

The reported composite z-score of the compound COC(=O)CC=C[C@@H](C)[C@H](OC)c1ccccc1Br was 0.231

The reported composite z-score of the compound CC(C)OC(=O)C=C1C[C@@H](c2ccc(C#N)cc2)O[C@@H](c2ccc(C#N)cc2)O1 was 1.4

The reported composite z-score of the compound C=CCOC(=O)[C@H]1[C@@H]2C(=O)O[C@@H](c3ccccc3)[C@@H](c3ccccc3)N2[C@@H](c2ccc(OCCOC(=O)[C@H]3C[C@H]4C(=O)N[C@@H](Cc5ccccc5)C(=O)N4[C@H]3c3ccc(O)cc3)cc2)[C@]12C(=O)Nc1ccccc12 was 1.22

The reported composite z-score of the compound CO[C@@H]1COC(=O)CC=C[C@@H](C)[C@H](OC)COC(=O)[C@H](COCc2ccccc2)NC(=O)CC=C[C@H]1C was 0.689

The reported composite z-score of the compound C=CCOC(=O)[C@H]1[C@@H]2C(=O)O[C@@H](c3ccccc3)[C@@H](c3ccccc3)N2[C@@H](c2ccc(OCCOC(=O)[C@H]3C[C@H]4C(=O)N5CCC[C@H]5C(=O)N4[C@H]3c3cccc(OCCO)c3)cc2)[C@]12C(=O)Nc1ccc(I)cc12 was 1.41

The reported composite z-score of the compound C[C@H]1CC[C@@H](C(=O)O)N[C@@H]1c1ccc(C#CCN(C)C)cc1 was 0.481

The reported composite z-score of the compound O=C1C[C@@H](O)[C@@H](O)[C@@H]2[C@@H]3C(=O)N(C4CCCCC4)C(=O)[C@@H]3CC[C@H]12 was 0.553

The reported composite z-score of the compound C#CCCCON=C1C[C@@H](O)[C@@H](O)[C@@H]2[C@@H]3C(=O)N([C@@H](C)c4ccccc4)C(=O)[C@@H]3CC[C@H]12 was 0.921

The reported composite z-score of the compound COCCCNC(=O)[C@]1(Cc2ccccc2)N=C(c2ccc(OCCCO)cc2)O[C@@H]1c1ccccc1 was -0.351

The reported composite z-score of the compound Cc1ccc(S[C@]2(C(=O)O)CC(=O)N(Cc3ccccc3)[C@@H]2c2ccc(CO)cc2I)cc1 was -0.417

The reported composite z-score of the compound COC(=O)CC=C[C@H](C)[C@H](CO)NS(=O)(=O)c1ccc(C)cc1 was 0.48

The reported composite z-score of the compound CC[C@@H](c1ccccc1)n1c(=O)n2n(c1=O)[C@H]1[C@H](O)[C@@H]3O[C@@H]3C(=NOCC(C)C)[C@H]1CC2 was 0.227

The reported composite z-score of the compound C=CC[C@@H]1C=C[C@H](ON=C[C@@H](OC)[C@H](C)C=CCC(=O)OC)[C@@H](CO)O1 was 0.343

The reported composite z-score of the compound COCC(=C=CC[C@@H](O)c1ccccc1OCCO)CCO was 0.135
